# Tested on: NCI-H460 lung
# method description: NCI-60 one-dose screen, 48 h (100 = growth as untreated, 0 = no growth, -100 = all killed)
# condition details: 10 µM unless noted
This is part of a sample that, as a whole, favours compounds with a hit. Of some 83,000 tested, about 20% had one in any assay.
# growth per record follows

[
  {
    "compound": "C#Cc1cc(C(=O)Nc2ccc(CNCCN3CCOCC3)c(C(F)(F)F)c2)ccc1C",
    "growth (%)": 101
  },
  {
    "compound": "COc1ccc(C(C)=C(c2ccc(OCCN3CCCCCC3)cc2)c2ccc(OCCN3CCCCCC3)cc2)cc1",
    "growth (%)": -57.2
  },
  {
    "compound": "Cc1ccccc1NC(=O)Nc1nc2ccc([N+](=O)[O-])cc2s1",
    "growth (%)": 5.87
  },
  {
    "compound": "O=C(/C=C/c1cccc(Br)c1)c1cccc(OCCCCOc2cccc(C(=O)/C=C/c3cccc(Br)c3)c2)c1",
    "growth (%)": 100
  },
  {
    "compound": "COc1ccc(-c2nc(C#N)c(N3CCC(S(=O)(=O)N4CCOCC4)CC3)o2)cc1",
    "growth (%)": 103
  },
  {
    "compound": "CS(=O)(=O)c1ccc(/C(=N/N=C(N)N)c2ccc(Cl)cc2)cc1",
    "growth (%)": 99.1
  },
  {
    "compound": "CCOC(=O)c1c(NC(=O)c2cccc(C(F)(F)F)c2)sc2c1CCC(=O)C2",
    "growth (%)": 27.9
  },
  {
    "compound": "CCC1=Cc2c(OC)cccc2OC12C=Cc1c(OC)cccc1O2 (stereo not given)",
    "growth (%)": 7.72
  },
  {
    "compound": "C=C(C=O)[C@@H]1CC[C@]2(C(=O)O)CC[C@]3(C)C(CC[C@@H]4[C@@](C)(CCC#N)[C@H](C(=C)C=O)CC[C@]43C)[C@@H]12 (stereo not given in full)",
    "growth (%)": 96.7
  },
  {
    "compound": "COc1ccc2sc(NC(=O)CCCCCCNC(=O)C(O)(O)C(F)(F)F)nc2c1",
    "growth (%)": 7.12
  }
]
